- Tested on: LB996-RCC (Kidney Carcinoma)
- assay_name: combination Emax (second highest fraction inhibited in the dose matrix, 72 h); higher = more inhibition; extreme values may be limits of the assay
endpoint_name: combination Emax
I only need the number, thanks.

Annotate the compound COc1nnc2ccc(N3CCC(c4ccc(OCCN5CCN(C)C(=O)[C@H]5C)cc4)CC3)nn12 [AZD5153] + CC1(C)CCC(CN2CCN(c3ccc(C(=O)NS(=O)(=O)c4ccc(NCC5CCOCC5)c([N+](=O)[O-])c4)c(Oc4cnc5[nH]ccc5c4)c3)CC2)=C(c2ccc(Cl)cc2)C1 [Venetoclax] (first compound max 1 µM, 7x7, partner max 1 µM) with its measured combination Emax. 0.473

Note down combination Emax recorded for Cn1cnc2c(F)c(Nc3ccc(Br)cc3Cl)c(C(=O)NOCCO)cc21 [Selumetinib] + C[C@@H]1COCCN1C2=NC(=NC(=C2)C3(CC3)[S@](=N)(=O)C)C4=C5C=CNC5=NC=C4 [AZD6738] (first compound max 10 µM, 7x7, partner max 10 µM) 0.556

Tell us which combination Emax value is on record for NC1(C(=O)N[C@@H](CCO)c2ccc(Cl)cc2)CCN(c2ncnc3[nH]ccc23)CC1 [Capivasertib] + CC(C)n1c(=O)n(C)c2cnc3cc(F)c(-c4ccc(OCCCN5CCCCC5)nc4)cc3c21 [AZD1390] (first compound max 10 µM, 7x7, partner max 0.3 µM) 0.645

Supply recorded combination Emax for COc1cccc(OCCCN)c1-c1cc(Nc2cnc(C#N)cn2)n[nH]1 [Prexasertib] + CCc1c2c(nc3ccc(O)cc13)-c1cc3c(c(=O)n1C2)COC(=O)[C@]3(O)CC [SN-38] (first compound max 1 µM, 7x7, partner max 0.3 µM) here. 0.947

###

- Tested on: PANC-03-27 (Pancreatic Carcinoma)
- assay_name: combination Emax (second highest fraction inhibited in the dose matrix, 72 h); higher = more inhibition; extreme values may be limits of the assay
endpoint_name: combination Emax
Hey, just send me the number, nothing else.

Consider the compound Cc1c2c(nn1C)CSCc1cc(n(C)n1)CSc1cc(c3ccccc3c1)OCCCc1c(C(=O)O)n(C)c3c-2c(Cl)ccc13 [AZD5991] + Cn1cnc2c(F)c(Nc3ccc(Br)cc3Cl)c(C(=O)NOCCO)cc21 [Selumetinib] (first compound max 1 µM, 7x7, partner max 3 µM) . State its measured combination Emax. 0.597

Provide combination Emax value for the following compound: NC1(C(=O)N[C@@H](CCO)c2ccc(Cl)cc2)CCN(c2ncnc3[nH]ccc23)CC1 [Capivasertib] + C[C@@H]1COCCN1C2=NC(=NC(=C2)C3(CC3)[S@](=N)(=O)C)C4=C5C=CNC5=NC=C4 [AZD6738] (first compound max 10 µM, 7x7, partner max 10 µM) 0.521

Note down combination Emax recorded for Cc1c2c(nn1C)CSCc1cc(n(C)n1)CSc1cc(c3ccccc3c1)OCCCc1c(C(=O)O)n(C)c3c-2c(Cl)ccc13 [AZD5991] + C[C@@H](Nc1cc(F)cc(F)c1)c1cc(C(=O)N(C)C)cc2c(=O)cc(N3CCOCC3)oc12 [AZD8186] (first compound max 1 µM, 7x7, partner max 3 µM) 0.354

Report combination Emax for N#Cc1cnc(Nc2cc(NC[C@H]3CNCCO3)c(C(F)(F)F)cn2)cn1 [SRA737] + C=CCn1c(=O)c2cnc(Nc3ccc(N4CCN(C)CC4)cc3)nc2n1-c1cccc(C(C)(C)O)n1 [AZD1775] (first compound max 10 µM, partner max 1 µM) 0.858

###

- Tested on: SU-DHL-10 (B-Cell Non-Hodgkin's Lymphoma)
- assay_name: Bliss excess, mean over the matrix (fraction); higher = more synergy
endpoint_name: Bliss excess

Return value of Bliss excess for input COc1cccc(OCCCN)c1-c1cc(Nc2cnc(C#N)cn2)n[nH]1 [Prexasertib] + Cc1cc2ncnn2cc1Nc1ncc2c(n1)n(C1CCOCC1)c(=O)n2C [AZD7648] (first compound max 1 µM, 7x7, partner max 10 µM) , no commentary. -0.045

Let me know recorded Bliss excess for CC1(C)CCC(CN2CCN(c3ccc(C(=O)NS(=O)(=O)c4ccc(NCC5CCOCC5)c([N+](=O)[O-])c4)c(Oc4cnc5[nH]ccc5c4)c3)CC2)=C(c2ccc(Cl)cc2)C1 [Venetoclax] + Cn1cnc2c(F)c(Nc3ccc(Br)cc3Cl)c(C(=O)NOCCO)cc21 [Selumetinib] (first compound max 1 µM, 7x7, partner max 3 µM) , thanks. -0.0123

Report Bliss excess for C[C@@H](c1ccc2nccn2c1)n1nnc2ncc(-c3cnn(C)c3)nc21 [Savolitinib] + CC1(C)CCC(CN2CCN(c3ccc(C(=O)NS(=O)(=O)c4ccc(NCC5CCOCC5)c([N+](=O)[O-])c4)c(Oc4cnc5[nH]ccc5c4)c3)CC2)=C(c2ccc(Cl)cc2)C1 [Venetoclax] (first compound max 1 µM, 7x7, partner max 1 µM) -0.0048

State, in one line, measured Bliss excess of COc1cccc(OCCCN)c1-c1cc(Nc2cnc(C#N)cn2)n[nH]1 [Prexasertib] + CN(C)CCCOc1ccc(-c2ccc3ncc4c(c3c2)n(C2CCOCC2)c(=O)n4C)cn1 [AZD0156] (first compound max 1 µM, 7x7, partner max 1 µM) -0.049

###

- Test system: NB12 (Neuroblastoma)
- assay_name: combination Emax (second highest fraction inhibited in the dose matrix, 72 h); higher = more inhibition; extreme values may be limits of the assay
Response key: true (1) means combination Emax >= 0.9; false (0) means combination Emax < 0.9.

Identify whether the reported combination Emax of the following compound is 0.9 or greater: CS(=O)(=O)CCNCc1ccc(-c2ccc3ncnc(Nc4ccc(OCc5cccc(F)c5)c(Cl)c4)c3c2)o1 [Lapatinib] + NC1(c2ccc(-c3nc4ccn5c(=O)[nH]nc5c4cc3-c3ccccc3)cc2)CCC1 [MK-2206] (first compound max 10 µM, 7x7, partner max 10 µM) false (0)

Determine whether measured combination Emax meets or exceeds 0.9 for CN(CCO)CC[C@H](CSc1ccccc1)Nc1ccc(S(=O)(=O)NC(=O)c2ccc(N3CCC([C@@H](O)c4ccccc4-c4ccc(Cl)cc4)CC3)cc2)cc1S(=O)(=O)C(F)(F)F [AZD4320] + CC(=O)O[C@H]1C(=O)[C@@]2(C)[C@H]([C@H](OC(=O)c3ccccc3)[C@]3(O)C[C@H](OC(=O)[C@H](O)[C@@H](NC(=O)c4ccccc4)c4ccccc4)C(C)=C1C3(C)C)[C@]1(OC(C)=O)CO[C@@H]1C[C@@H]2O [Paclitaxel] (first compound max 1 µM, 7x7, partner max 3 µM) true (1)

Hi, just wondering whether Cc1nc(-c2cn3c(n2)-c2ccc(-c4cnn(C(C)(C)C(N)=O)c4)cc2OCC3)n(C(C)C)n1 [Taselisib] + O=C(Nc1ccc2[nH]nc(-c3ccncc3)c2c1)[C@@H]1CCN(CC(=O)N2CCN(c3ccc(-c4ncccn4)cc3)CC2)C1 [SCH772984] (first compound max 10 µM, 7x7, partner max 5 µM) shows combination Emax of 0.9 or higher. false (0)

Is it the case that Cc1c2c(nn1C)CSCc1cc(n(C)n1)CSc1cc(c3ccccc3c1)OCCCc1c(C(=O)O)n(C)c3c-2c(Cl)ccc13 [AZD5991] + CS(=O)(=O)CCNCc1ccc(-c2ccc3ncnc(Nc4ccc(OCc5cccc(F)c5)c(Cl)c4)c3c2)o1 [Lapatinib] (first compound max 1 µM, 7x7, partner max 10 µM) has combination Emax reaching or exceeding 0.9? false (0)

Does the compound O=C(c1cc(Cc2n[nH]c(=O)c3ccccc23)ccc1F)N1CCN(C(=O)C2CC2)CC1 [Olaparib] + CN(CC[C@H](CSC1=CC=CC=C1)NC2=C(C=C(C=C2)S(=O)(=O)NC(=O)C3=CC=C(C=C3)N4CCC(CC4)[C@H](C5=CC=CC=C5C6=CC=C(C=C6)Cl)O)S(=O)(=O)C(F)(F)F)CCO [AZD4320] (first compound max 10 µM, 7x7, partner max 1 µM) have recorded combination Emax that is 0.9 or more? true (1)

###

- Test system: GB-1 (Glioblastoma)
- assay_name: Bliss excess, mean over the matrix (fraction); higher = more synergy
Kindly state Bliss excess for each of the entries shown.

Identify measured Bliss excess corresponding to CC1(C)CCC(CN2CCN(c3ccc(C(=O)NS(=O)(=O)c4ccc(NCC5CCOCC5)c([N+](=O)[O-])c4)c(Oc4cnc5[nH]ccc5c4)c3)CC2)=C(c2ccc(Cl)cc2)C1 [Venetoclax] + Cn1cnc2c(F)c(Nc3ccc(Br)cc3Cl)c(C(=O)NOCCO)cc21 [Selumetinib] (first compound max 1 µM, 7x7, partner max 3 µM) -0.0366

// Input: CCN(CCO)CCCOc1ccc2c(Nc3cc(CC(=O)Nc4cccc(F)c4)[nH]n3)ncnc2c1 [AZD2811] + C[C@@H]1COCCN1C2=NC(=NC(=C2)C3(CC3)[S@](=N)(=O)C)C4=C5C=CNC5=NC=C4 [AZD6738] (first compound max 1 µM, 7x7, partner max 10 µM) . Output its Bliss excess only. -0.009

Look up and state reported Bliss excess for CC1(C)CCC(CN2CCN(c3ccc(C(=O)NS(=O)(=O)c4ccc(NCC5CCOCC5)c([N+](=O)[O-])c4)c(Oc4cnc5[nH]ccc5c4)c3)CC2)=C(c2ccc(Cl)cc2)C1 [Venetoclax] + CN(C)CCCOc1ccc(-c2ccc3ncc4c(c3c2)n(C2CCOCC2)c(=O)n4C)cn1 [AZD0156] (first compound max 1 µM, 7x7, partner max 1 µM) -0.0206

Output measured Bliss excess for this item: Cc1c2c(nn1C)CSCc1cc(n(C)n1)CSc1cc(c3ccccc3c1)OCCCc1c(C(=O)O)n(C)c3c-2c(Cl)ccc13 [AZD5991] + CC1(C)CCC(CN2CCN(c3ccc(C(=O)NS(=O)(=O)c4ccc(NCC5CCOCC5)c([N+](=O)[O-])c4)c(Oc4cnc5[nH]ccc5c4)c3)CC2)=C(c2ccc(Cl)cc2)C1 [Venetoclax] (first compound max 1 µM, 7x7, partner max 1 µM) -0.0257

Give a short answer stating reported Bliss excess for CN(C)CCCOc1ccc(-c2ccc3ncc4c(c3c2)n(C2CCOCC2)c(=O)n4C)cn1 [AZD0156] + C[C@@H]1COCCN1C2=NC(=NC(=C2)C3(CC3)[S@](=N)(=O)C)C4=C5C=CNC5=NC=C4 [AZD6738] (first compound max 1 µM, 7x7, partner max 10 µM) . -0.0132

Identify measured Bliss excess corresponding to COc1nnc2ccc(N3CCC(c4ccc(OCCN5CCN(C)C(=O)[C@H]5C)cc4)CC3)nn12 [AZD5153] + CC1(C)CCC(CN2CCN(c3ccc(C(=O)NS(=O)(=O)c4ccc(NCC5CCOCC5)c([N+](=O)[O-])c4)c(Oc4cnc5[nH]ccc5c4)c3)CC2)=C(c2ccc(Cl)cc2)C1 [Venetoclax] (first compound max 1 µM, 7x7, partner max 1 µM) -0.062

// fetch Bliss excess given entry CN(CCO)CC[C@H](CSc1ccccc1)Nc1ccc(S(=O)(=O)NC(=O)c2ccc(N3CCC([C@@H](O)c4ccccc4-c4ccc(Cl)cc4)CC3)cc2)cc1S(=O)(=O)C(F)(F)F [AZD4320] + Cn1cnc2c(F)c(Nc3ccc(Br)cc3Cl)c(C(=O)NOCCO)cc21 [Selumetinib] (first compound max 1 µM, 7x7, partner max 3 µM) 0.0313

Give Bliss excess for CCN(CCO)CCCOc1ccc2c(Nc3cc(CC(=O)Nc4cccc(F)c4)[nH]n3)ncnc2c1 [AZD2811] + C=CCn1c(=O)c2cnc(Nc3ccc(N4CCN(C)CC4)cc3)nc2n1-c1cccc(C(C)(C)O)n1 [AZD1775] (first compound max 1 µM, partner max 1 µM) 0.0002

Annotate the compound COc1cccc(OCCCN)c1-c1cc(Nc2cnc(C#N)cn2)n[nH]1 [Prexasertib] + O=C(c1cc(Cc2n[nH]c(=O)c3ccccc23)ccc1F)N1CCN(C(=O)C2CC2)CC1 [Olaparib] (first compound max 1 µM, 7x7, partner max 10 µM) with its measured Bliss excess. -0.0002

Tell us which Bliss excess value is on record for CC1(C)CCC(CN2CCN(c3ccc(C(=O)NS(=O)(=O)c4ccc(NCC5CCOCC5)c([N+](=O)[O-])c4)c(Oc4cnc5[nH]ccc5c4)c3)CC2)=C(c2ccc(Cl)cc2)C1 [Venetoclax] + C[C@@H](Nc1cc(F)cc(F)c1)c1cc(C(=O)N(C)C)cc2c(=O)cc(N3CCOCC3)oc12 [AZD8186] (first compound max 1 µM, 7x7, partner max 3 µM) -0.0076

In one line, give reported Bliss excess of the entry CCc1c2c(nc3ccc(O)cc13)-c1cc3c(c(=O)n1C2)COC(=O)[C@]3(O)CC [SN-38] + CN(C)CCCOc1ccc(-c2ccc3ncc4c(c3c2)n(C2CCOCC2)c(=O)n4C)cn1 [AZD0156] (first compound max 0.3 µM, 7x7, partner max 1 µM) . -0.0374

Name the recorded Bliss excess of the item CN(CCO)CC[C@H](CSc1ccccc1)Nc1ccc(S(=O)(=O)NC(=O)c2ccc(N3CCC([C@@H](O)c4ccccc4-c4ccc(Cl)cc4)CC3)cc2)cc1S(=O)(=O)C(F)(F)F [AZD4320] + CCN(CCO)CCCOc1ccc2c(Nc3cc(CC(=O)Nc4cccc(F)c4)[nH]n3)ncnc2c1 [AZD2811] (first compound max 1 µM, 7x7, partner max 1 µM) in your answer. -0.0189
